B1: ZBTB22 (parent)
chain: AVLAASSPYFHDQVLLKGMTSISL

# Variants of: B1
# assay: protein stability index of a GFP-peptide fusion (GPS, HEK-293T) (PSI 1-6); higher = more stable;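 also: lentivirally expressed fusions sorted by FACS into six bins by GFP to DsRed ratio, PSI derived from sequencing read proportions per bin multiplied by bin number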
# recorded-conditions: c terminus: a fixed tail appended
Let's look at some variants and their measured protein stability index.
experimental-endpoint: protein stability index

1. IVLAASSPYFHDQVLLKGMTSISL [A1I] ... 2.99
2. AVLAASSPYFHDQKLLKGMTSISL [V14K] ... 1.04
3. AVLAASSPYFHDQVLLKGMTSIGL [S23G] ... 3.35
4. AVLAASSPYFHDQVLLKGMTSIST [L24T] ... 1.27
5. AVLAASSPYFHDQVLLKGMTSIEL [S23E] ... 2.57
6. AVLAASSPYFHDQVLLKGMNSISL [T20N] ... 2.51
7. AVLAASSPYFHDQNLLKGMTSISL [V14N] ... 2.07
8. AVLAASSPYFHDIVLLKGMTSISL [Q13I] ... 4.9
9. AVLAASSPYFHDQVLLKGMTQISL [S21Q] ... 2.67
10. AVLAASSPYFHWQVLLKGMTSISL [D12W] ... 2.12
11. AILAASSPYFHDQVLLKGMTSISL [V2I] ... 2.75
12. AVLAASSPYVHDQVLLKGMTSISL [F10V] ... 2.44
13. AVLALSSPYFHDQVLLKGMTSISL [A5L] ... 2.21
14. AVLAASSPYFHDQTLLKGMTSISL [V14T] ... 2.96
15. AVLAASDPYFHDQVLLKGMTSISL [S7D] ... 3.38
16. AVLAASSPYFHDQFLLKGMTSISL [V14F] ... 1.8
17. AVLAASSPHFHDQVLLKGMTSISL [Y9H] ... 1.33
18. AVLAASSPYFHDQVLLKGMTSIML [S23M] ... 1.86
19. AVLAASSPYFHDQHLLKGMTSISL [V14H] ... 2.37
20. AVLAASSPYFHKQVLLKGMTSISL [D12K] ... 1.39
21. AVLAASEPYFHDQVLLKGMTSISL [S7E] ... 2.33
22. AVLAASSPYFHDQVLLKGMTSITL [S23T] ... 1.22
23. AVRAASSPYFHDQVLLKGMTSISL [L3R] ... 1.45
24. AVLAAISPYFHDQVLLKGMTSISL [S6I] ... 1.97
25. AVLAASVPYFHDQVLLKGMTSISL [S7V] ... 2.11
26. AVLAASSPYFHDQVLLKGMTAISL [S21A] ... 2.04
27. AVLAASSPYFHDQVLLKGATSISL [M19A] ... 2.09
28. AVLAASSPYMHDQVLLKGMTSISL [F10M] ... 2.72
29. AVLAASSPYFHDQVLLKGMTFISL [S21F] ... 2.52
30. AWLAASSPYFHDQVLLKGMTSISL [V2W] ... 1.79
31. AVLAASTPYFHDQVLLKGMTSISL [S7T] ... 3.75
32. AVLAASSPYFHDQRLLKGMTSISL [V14R] ... 3.36
33. AVLAASSPYFHDQVLLKGMTSDSL [I22D] ... 1.66
34. AVLAASSPYFHDQVLQKGMTSISL [L16Q] ... 2.32
35. MVLAASSPYFHDQVLLKGMTSISL [A1M] ... 2.57
36. AVLAAKSPYFHDQVLLKGMTSISL [S6K] ... 2.05
37. AVLAASSPYFHDQVLLKGMTSIIL [S23I] ... 2.51
38. AVLAASSPYFHDQVQLKGMTSISL [L15Q] ... 1.76
39. AVLAASSPYFDDQVLLKGMTSISL [H11D] ... 3.15
40. AVLAASSPYFHDQVLDKGMTSISL [L16D] ... 1.93
41. AVLAASSPYFHDQVLLKFMTSISL [G18F] ... 3.77
42. AVLAASSPYFHPQVLLKGMTSISL [D12P] ... 3.38
43. AVLAASSPYFHDQVLLKGMTSISS [L24S] ... 1.15
44. AVLAASSPYQHDQVLLKGMTSISL [F10Q] ... 1.65
45. AVLAASSPYFHDQPLLKGMTSISL [V14P] ... 1.63
46. AVLMASSPYFHDQVLLKGMTSISL [A4M] ... 2.04
47. AVLAANSPYFHDQVLLKGMTSISL [S6N] ... 3.54
48. AVLAWSSPYFHDQVLLKGMTSISL [A5W] ... 1.88
49. AQLAASSPYFHDQVLLKGMTSISL [V2Q] ... 1.62
50. AVLAQSSPYFHDQVLLKGMTSISL [A5Q] ... 3.23
51. AVLAASSPYFHDQVLLKGMTYISL [S21Y] ... 3.85
52. AVLAASSPYFHDQVLLKDMTSISL [G18D] ... 3.05
53. AVLAASSPYFHDFVLLKGMTSISL [Q13F] ... 3
54. AVLDASSPYFHDQVLLKGMTSISL [A4D] ... 1.15
55. AVLAASSPYFHDQVLYKGMTSISL [L16Y] ... 3.11
56. TVLAASSPYFHDQVLLKGMTSISL [A1T] ... 4.21
57. AVLAASSPYFHDQVPLKGMTSISL [L15P] ... 1.3
58. AVLAASSPYFHDQVLLKGMTDISL [S21D] ... 2.17
59. AVLAASSPYFHDQVLLKGMTSILL [S23L] ... 2.64
60. YVLAASSPYFHDQVLLKGMTSISL [A1Y] ... 2.9
61. AVLAASSPYFHDQVLLKGKTSISL [M19K] ... 1.37
62. AVLAASSPYFHDQVLLKKMTSISL [G18K] ... 2.14
63. AVLAASSPYFHLQVLLKGMTSISL [D12L] ... 2.57
64. AVLAASSPYFHDQVILKGMTSISL [L15I] ... 3.58
65. AVLAASSPYFHDQVLLKGMTSISE [L24E] ... 1.52
66. AVLAFSSPYFHDQVLLKGMTSISL [A5F] ... 2.98
67. AVLAASSPYFHDQVKLKGMTSISL [L15K] ... 2.3
68. AVLAASSPYFHDQVLLKGMTSHSL [I22H] ... 2.43

Attribution: the supplement of paper PMC10567573
